Data origin: the kinase profiling compilation of Christmann-Franck et al. (2016)

- Experimental system: LIMK1 (human) (UniProt P53667)
- Sequence (P53667 whole entry, looked up): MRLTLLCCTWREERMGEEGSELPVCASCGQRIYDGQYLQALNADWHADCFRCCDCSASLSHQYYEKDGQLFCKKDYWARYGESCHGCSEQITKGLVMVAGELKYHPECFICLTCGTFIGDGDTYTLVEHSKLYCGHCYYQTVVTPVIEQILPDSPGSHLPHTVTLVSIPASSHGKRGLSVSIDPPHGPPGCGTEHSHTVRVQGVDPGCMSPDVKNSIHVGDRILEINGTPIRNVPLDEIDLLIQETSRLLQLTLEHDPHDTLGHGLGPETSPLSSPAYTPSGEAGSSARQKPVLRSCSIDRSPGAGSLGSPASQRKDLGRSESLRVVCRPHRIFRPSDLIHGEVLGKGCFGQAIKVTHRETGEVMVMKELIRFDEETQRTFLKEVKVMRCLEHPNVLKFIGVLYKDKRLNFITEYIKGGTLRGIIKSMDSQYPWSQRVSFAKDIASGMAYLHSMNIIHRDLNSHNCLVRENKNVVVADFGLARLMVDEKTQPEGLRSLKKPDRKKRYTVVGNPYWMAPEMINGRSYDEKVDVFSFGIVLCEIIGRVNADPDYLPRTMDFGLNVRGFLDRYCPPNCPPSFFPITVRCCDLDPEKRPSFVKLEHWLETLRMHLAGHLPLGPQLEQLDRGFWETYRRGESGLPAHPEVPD
- Protocol text: radiometric filter-binding kinase assay, Kinase HotSpot
- Measurement context: compound 0.5 µM; ATP 10 µM
The label depends only on residual activity: rule met if it is at least 90%, rule not met if it is smaller.

-- ask Answer whether residual activity of Cn1c2ccccc2c2c3c(c4c5ccccc5n(CCC#N)c4c21)CNC3=O is greater than or equal to 90%.
-- reply rule not met

-- ask Next record, please: COc1cc(Nc2c(C#N)cnc3cc(OCCCN4CCN(C)CC4)c(OC)cc23)c(Cl)cc1Cl
-- reply rule met

-- ask What would you report for CN(C)S(=O)(=O)c1ccc2c(c1)/C(=C/c1cc3c([nH]1)CCCC3)C(=O)N2 ?
-- reply rule not met

***
-- ask Evaluate CN(C)CCCn1cc(C2=C(c3c[nH]c4ccccc34)C(=O)NC2=O)c2ccccc21 : residual activity at minimum 90%?
-- reply rule met

----------
I'd be grateful if you could share measured residual activity for these entries.
- Experimental system: DDR2 (human) (UniProt Q16832)
- Sequence (Q16832 whole entry, looked up): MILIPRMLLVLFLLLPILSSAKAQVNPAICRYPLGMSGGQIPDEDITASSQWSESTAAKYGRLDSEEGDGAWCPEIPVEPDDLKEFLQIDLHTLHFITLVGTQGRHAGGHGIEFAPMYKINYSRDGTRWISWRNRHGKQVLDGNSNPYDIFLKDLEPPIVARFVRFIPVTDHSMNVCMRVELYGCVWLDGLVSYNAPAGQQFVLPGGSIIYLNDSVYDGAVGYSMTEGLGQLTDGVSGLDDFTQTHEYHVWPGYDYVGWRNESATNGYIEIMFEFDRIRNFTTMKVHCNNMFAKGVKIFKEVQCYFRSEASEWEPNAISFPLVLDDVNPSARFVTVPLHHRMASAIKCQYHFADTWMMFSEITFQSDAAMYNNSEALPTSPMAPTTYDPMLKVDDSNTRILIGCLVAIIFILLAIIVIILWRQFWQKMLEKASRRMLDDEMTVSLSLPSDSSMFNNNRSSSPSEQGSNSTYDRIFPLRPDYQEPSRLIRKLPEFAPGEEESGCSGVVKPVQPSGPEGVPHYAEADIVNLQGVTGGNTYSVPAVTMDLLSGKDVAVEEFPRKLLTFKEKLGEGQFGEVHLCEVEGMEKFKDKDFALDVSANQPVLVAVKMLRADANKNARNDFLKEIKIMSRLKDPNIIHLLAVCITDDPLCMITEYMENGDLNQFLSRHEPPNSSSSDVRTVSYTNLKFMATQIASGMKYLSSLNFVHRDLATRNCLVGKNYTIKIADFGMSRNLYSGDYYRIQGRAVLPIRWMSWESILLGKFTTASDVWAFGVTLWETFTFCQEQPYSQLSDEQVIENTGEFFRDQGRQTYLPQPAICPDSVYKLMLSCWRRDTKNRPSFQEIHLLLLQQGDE
- Protocol text: radiometric filter-binding kinase assay, Kinase HotSpot
- Measurement context: compound 0.5 µM; ATP 10 µM
Answers are plain numbers, in %.

Some molecules with known residual activity results, for comparison:
-- ask Which residual activity reading was recorded for the molecule CN(C)c1ccc(/C=C2\C(=O)Nc3ccccc32)cc1 ?
-- reply 103

-- ask And the next one, CO[C@@H]1[C@H](N(C)C(=O)c2ccccc2)C[C@H]2O[C@]1(C)n1c3ccccc3c3c4c(c5c6ccccc6n2c5c31)C(=O)NC4 ?
-- reply 380

-- ask Here is the next molecule: COc1ccc(S(=O)(=O)N(CCO)c2ccccc2CN(C)C/C=C/c2ccc(Cl)cc2)cc1
-- reply 96.8

// for each molecule in input: emit residual activity
1. COc1cc2ncnc(Nc3ccc(OCc4ccccc4)cc3)c2cc1OC
2. Cc1cccc(-c2nc(C(C)(C)C)[nH]c2-c2ccc3c(c2)OCO3)n1
3. C[C@@H]1CCN(C(=O)CC#N)C[C@@H]1N(C)c1ncnc2[nH]ccc12
4. O=C1C(Cl)=C(N2C(=O)CCC2=O)C(=O)c2ccccc21

-- reply
[100, 98.3, 104, 95.8]

----------
Exercise: for every item that follows, state its recorded residual activity.
- Experimental system: MAP3K3 (human) (UniProt Q99759)
- Sequence (Q99759 whole entry, looked up): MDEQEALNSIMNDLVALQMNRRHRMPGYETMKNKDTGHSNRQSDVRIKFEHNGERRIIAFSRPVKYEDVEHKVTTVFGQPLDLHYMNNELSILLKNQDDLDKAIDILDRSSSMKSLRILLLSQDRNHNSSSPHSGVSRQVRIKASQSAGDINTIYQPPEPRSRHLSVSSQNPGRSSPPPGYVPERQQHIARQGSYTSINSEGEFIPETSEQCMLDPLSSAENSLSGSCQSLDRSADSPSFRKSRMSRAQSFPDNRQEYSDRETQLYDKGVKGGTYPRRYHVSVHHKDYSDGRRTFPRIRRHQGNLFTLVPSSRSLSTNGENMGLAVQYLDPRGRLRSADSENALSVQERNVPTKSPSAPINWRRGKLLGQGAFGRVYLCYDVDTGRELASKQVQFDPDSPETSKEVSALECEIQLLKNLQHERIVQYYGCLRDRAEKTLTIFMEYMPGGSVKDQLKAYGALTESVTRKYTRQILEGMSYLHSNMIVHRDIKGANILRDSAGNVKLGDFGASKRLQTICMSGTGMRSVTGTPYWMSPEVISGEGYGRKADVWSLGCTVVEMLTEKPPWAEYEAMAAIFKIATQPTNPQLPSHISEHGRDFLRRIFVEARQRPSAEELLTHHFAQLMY
- Protocol text: radiometric filter-binding kinase assay, Kinase HotSpot
- Measurement context: compound 0.5 µM; ATP 10 µM
Give bare numbers, in %.

Recorded residual activity, per entry:
-- ask Request: residual activity, test system MAP3K3 (human) (UniProt Q99759), entry CN(C)c1ccc(/C=C2\C(=O)Nc3ccccc32)cc1
-- reply 104

-- ask Another: COc1ccc(Cl)cc1NC(=O)Nc1cc(C)nc2ccccc12
-- reply 111

-- ask Follow-up entry: Fc1ccc(-c2nc3n(c2-c2ccncc2)CCS3)cc1
-- reply 100

-- ask Another compound to check: Cn1c2ccccc2c2c3c(c4c5ccccc5n(CCC#N)c4c21)CNC3=O
-- reply 5.86

-- ask Further, for COc1ccc(C(=O)Nc2sc3c(c2C(N)=O)CCCC3)cc1OC ?
-- reply 100

List residual activity for every entry below, keeping the order given.
1. COc1ccc2c(c1)/C(=C/c1cnc[nH]1)C(O)=N2
2. O=C1Nc2ccc(Br)cc2/C1=C\c1cc2c([nH]1)CCCC2
3. N#Cc1c[nH]c2c[nH]/c(=N\Cc3cccnc3)cc2/c1=N\c1ccc(F)c(Cl)c1

-- reply
[84.2, 88.6, 75]

Here are 5 compounds. What values of residual activity were reported for them?
1. N#C/C(=C\c1ccc(O)c(O)c1)C(=O)NCc1ccccc1
2. COc1ccc2c(c1)c(C1=C(c3c[nH]c4ccccc34)C(=O)NC1=O)cn2CCCN(C)C
3. O=C1C(Cl)=C(N2C(=O)CCC2=O)C(=O)c2ccccc21
4. CN(C)CCCn1cc(C2=C(c3c[nH]c4ccccc34)C(=O)NC2=O)c2ccccc21
5. Cc1cncc2cccc(S(=O)(=O)N3CCCN(C(=O)CN)C[C@H]3C)c12

-- reply
102
82.8
95.5
97
99.1

Each of the following entries comes with a recorded value; kindly state residual activity for each.
1. COc1cc2ncnc(Nc3ccc(OCc4ccccc4)cc3)c2cc1OC
2. CN(C)S(=O)(=O)c1ccc2c(c1)/C(=C/c1cc3c([nH]1)CCCC3)C(=O)N2

-- reply
88.7
48.7

Please give residual activity for each item listed below.
1. COc1ccc(S(=O)(=O)N(CCO)c2ccccc2CN(C)C/C=C/c2ccc(Cl)cc2)cc1
2. CS(=O)(=O)CCNCc1ccc(-c2ccc3ncnc(Nc4ccc(OCc5cccc(F)c5)c(Cl)c4)c3c2)o1
3. Cc1nc(-c2ccccc2)c(-c2ccncc2)o1
4. c1ccc2c(-c3ccncc3)c[nH]c2c1

-- reply
[99.8, 110, 101, 103]

Each of the following entries comes with a recorded value; kindly state residual activity for each.
1. Cc1cccc(-c2nc(C(C)(C)C)[nH]c2-c2ccc3c(c2)OCO3)n1
2. O=C(c1cc2cc(O)ccc2[nH]1)c1cc2cc(O)ccc2[nH]1
3. O=C1c2ccccc2-c2nc3nnnn3nc21

-- reply
[120, 96, 134]

// input: 7 compounds below; output: residual activity for each
1. COc1cc2ncnc(Nc3ccc(Oc4ccccc4)cc3)c2cc1OC
2. COc1cc(Nc2c(C#N)cnc3cc(OCCCN4CCN(C)CC4)c(OC)cc23)c(Cl)cc1Cl
3. CO[C@@H]1[C@H](N(C)C(=O)c2ccccc2)C[C@H]2O[C@]1(C)n1c3ccccc3c3c4c(c5c6ccccc6n2c5c31)C(=O)NC4
4. O=C1NC(=O)c2c1c1c3ccccc3[nH]c1n1cncc21
5. CC(C)(C)c1cc(C=C(C#N)C#N)cc(Br)c1O
6. Ic1cccc(CSc2nnc(-c3ccncc3)o2)c1
7. NC(=O)c1cccc(-c2cc(Nc3ccc(OC(F)(F)F)cc3)ncn2)c1

-- reply
1. 94.5
2. 11.8
3. 31
4. 86.9
5. 118
6. 89.6
7. 104

For every listed record, write down its residual activity.
1. CCCCc1c(-c2ccc(OC)cc2)[nH]c2nccnc12
2. C[C@@H]1CCN(C(=O)CC#N)C[C@@H]1N(C)c1ncnc2[nH]ccc12

-- reply
[99.8, 115]
